Tested on: SNB-78
Test: NCI tumour cell line growth inhibition, 48 h
Active and inactive are the calls of the source. No stated cut-off is given here; in the data, active = GI50 up to about 1.1 µM and inactive = higher.
assay readout: GI50

// GI50 value for CCCCN[C@H]1C2C3CC4C5CC(C42)C1(C)C53 (some centres undefined) : > 100 µM (inactive)

Just so you know, measured GI50 for "NC(=S)N1N=C2c3ccccc3CC[C@H]2[C@@H]1c1ccc(Cl)cc1" came out at 87.3 µM (inactive)

For "CC(=O)N1C/C(=C\c2ccc(N(C)C)cc2)C(=O)/C(=C/c2ccc(N(C)C)cc2)C1" the molecule record lists GI50 as 85.9 µM (inactive)

Recorded GI50 (molecule "NCCCNCCSSCc1ccccc1CSSCCNCCCN" ): 56.5 µM (inactive)

Documented GI50 of CCCOC(=O)C1C(c2ccc(OC)cc2)NC(c2ccc(OC)cc2)C(C(=O)OCCC)S1(=O)=O (centres undefined) : > 10 µM (inactive)

Memo: Cc1cccc2[n+]1[C@H]1[C@H]([C@@H]3O[C@H]1c1ccccc13)[S+]([O-])N2 (some centres undefined) , reported GI50: 23.3 µM (inactive)
